# tested.target: Human IP6K1 (Homo sapiens, UniProt Q92551)
# Construct: GST (N, cleaved yes); made in house; host or cells: C43 E. coli, pGEX-6P-2
# Sequence (Q92551 whole entry): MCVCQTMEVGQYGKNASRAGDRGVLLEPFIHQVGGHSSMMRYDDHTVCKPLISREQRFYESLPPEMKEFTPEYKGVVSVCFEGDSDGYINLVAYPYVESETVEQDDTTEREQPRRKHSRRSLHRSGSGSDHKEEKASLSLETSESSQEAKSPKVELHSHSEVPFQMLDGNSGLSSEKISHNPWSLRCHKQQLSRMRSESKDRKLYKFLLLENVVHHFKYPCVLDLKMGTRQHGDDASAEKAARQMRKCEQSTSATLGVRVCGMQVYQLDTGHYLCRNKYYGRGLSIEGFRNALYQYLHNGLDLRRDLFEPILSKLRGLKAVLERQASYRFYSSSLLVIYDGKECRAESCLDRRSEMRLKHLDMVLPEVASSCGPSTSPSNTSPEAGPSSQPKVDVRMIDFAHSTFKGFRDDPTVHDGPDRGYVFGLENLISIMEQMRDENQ
# measurement.description: IP6K1 high-throughput screen of the Sigma LOPAC (ADP-Glo Max, single point);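 also: final compound concentration 10µM in 5% DMSO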
# Type: biochemical
# assay.context: LOPAC single-point screen, ADP-Glo Max raw signal per well
Structures can show the parent of a compound that is named as a salt.
quantity.name: Raw Signal
Lab note: jot the number down without any unit.

Examples with their reported Raw Signal follow.
| compound | tested.target | quantity.name | recorded.result |
| --- | --- | --- | --- |
| C[C@H](O)[C@H](O)[C@H]1CNc2nc(N)[nH]c(=O)c2N1.Cl | Human IP6K1 (Homo sapiens, UniProt Q92551) | Raw Signal | 53766 |
| CCCOc1ccccc1-c1nc2nn[nH]c2c(=O)[nH]1 | Human IP6K1 (Homo sapiens, UniProt Q92551) | Raw Signal | 56198 |
| CN(C)C(=O)Oc1cccc([N+](C)(C)C)c1 [Neostigmine bromide] | Human IP6K1 (Homo sapiens, UniProt Q92551) | Raw Signal | 55937 |
| C=CC[C@H](N)C(=O)O | Human IP6K1 (Homo sapiens, UniProt Q92551) | Raw Signal | 58984 |
| CC(=O)Oc1cc(C(C)C)c(OCCN(C)C)cc1C [Moxisylyte hydrochloride] | Human IP6K1 (Homo sapiens, UniProt Q92551) | Raw Signal | 54969 |
| C=CCc1ccccc1OCC(O)CNC1(C)CCC(C(C)(C)NC(=O)CBr)CC1 (stereo not shown) | Human IP6K1 (Homo sapiens, UniProt Q92551) | Raw Signal | 55252 |
| CC(C)(C)c1o[nH]c(=O)c1CC(N)C(=O)O (stereo not shown) | Human IP6K1 (Homo sapiens, UniProt Q92551) | Raw Signal | 57342 |
| CS(=O)(=O)Nc1ccc([N+](=O)[O-])cc1Oc1ccccc1 [Nimesulide] | Human IP6K1 (Homo sapiens, UniProt Q92551) | Raw Signal | 51877 |
| Nc1nc(Cl)nc2c1ncn2C1OC(CO)C(O)C1O (stereo not shown) | Human IP6K1 (Homo sapiens, UniProt Q92551) | Raw Signal | 58125 |
| N[C@@H](CS(=O)O)C(=O)O | Human IP6K1 (Homo sapiens, UniProt Q92551) | Raw Signal | 57943 |

*Q* What does the data say about its Raw Signal? Entry: CC(C)NP(=O)(NC(C)C)OP(=O)(NC(C)C)NC(C)C [Tetraisopropyl pyrophosphoramide]
*A* 57279

*Q* What does the data say about its Raw Signal? Entry: NC1CCN(O)C1=O (racemic) [(±)-HA-966]
*A* 57782

*Q* What does the data say about its Raw Signal? Entry: CCC1(C2=NCCN2)Cc2ccccc2O1 (stereo not shown) [Efaroxan hydrochloride]
*A* 53966

*Q* What does the data say about its Raw Signal? Entry: Cl.N=C(N)NN [Aminoguanidine hydrochloride]
*A* 58743

*Q* What does the data say about its Raw Signal? Entry: CC(=O)[C@]1(O)Cc2c(O)c3c(c(O)c2[C@@H](O[C@H]2C[C@H](N)[C@H](O)[C@H](C)O2)C1)C(=O)c1ccccc1C3=O
*A* 55218

*Q* What does the data say about its Raw Signal? Entry: CN1CCc2cccc(Cl)c2CC1
*A* 54503

*Q* What does the data say about its Raw Signal? Entry: Oc1cccc2c(O)nccc12
*A* 54537

*Q* What does the data say about its Raw Signal? Entry: COC(=O)[C@@H]1[C@H]2C[C@H]3c4[nH]c5ccccc5c4CCN3C[C@@H]2CC[C@@H]1O [Yohimbine hydrochloride]
*A* 57737

*Q* What does the data say about its Raw Signal? Entry: Cl.O=C(OC1CCN(CCCl)CC1)C(c1ccccc1)c1ccccc1
*A* 54369

*Q* What does the data say about its Raw Signal? Entry: NCCCP(=O)(O)O
*A* 56234

*Q* What does the data say about its Raw Signal? Entry: CNCC(O)c1ccc(O)cc1 (racemic) [(±)-Synephrine]
*A* 56579

*Q* What does the data say about its Raw Signal? Entry: N=C1Sc2ccccc2C2=NCCCN12
*A* 56268

*Q* What does the data say about its Raw Signal? Entry: CC(C)(C)c1ccc(S(=O)(=O)/C=C/C#N)cc1
*A* 58167
